target: human GlyT1c transporter (Homo sapiens (Human), UniProt P48067); assay: Radioligand binding assay using recombinant CHO cell membranes expressing human GlyT1; conditions: examples 88-204, radioligand not specified by footnote, read-out: radioligand binding Kiapp
Sequence (P48067 whole entry): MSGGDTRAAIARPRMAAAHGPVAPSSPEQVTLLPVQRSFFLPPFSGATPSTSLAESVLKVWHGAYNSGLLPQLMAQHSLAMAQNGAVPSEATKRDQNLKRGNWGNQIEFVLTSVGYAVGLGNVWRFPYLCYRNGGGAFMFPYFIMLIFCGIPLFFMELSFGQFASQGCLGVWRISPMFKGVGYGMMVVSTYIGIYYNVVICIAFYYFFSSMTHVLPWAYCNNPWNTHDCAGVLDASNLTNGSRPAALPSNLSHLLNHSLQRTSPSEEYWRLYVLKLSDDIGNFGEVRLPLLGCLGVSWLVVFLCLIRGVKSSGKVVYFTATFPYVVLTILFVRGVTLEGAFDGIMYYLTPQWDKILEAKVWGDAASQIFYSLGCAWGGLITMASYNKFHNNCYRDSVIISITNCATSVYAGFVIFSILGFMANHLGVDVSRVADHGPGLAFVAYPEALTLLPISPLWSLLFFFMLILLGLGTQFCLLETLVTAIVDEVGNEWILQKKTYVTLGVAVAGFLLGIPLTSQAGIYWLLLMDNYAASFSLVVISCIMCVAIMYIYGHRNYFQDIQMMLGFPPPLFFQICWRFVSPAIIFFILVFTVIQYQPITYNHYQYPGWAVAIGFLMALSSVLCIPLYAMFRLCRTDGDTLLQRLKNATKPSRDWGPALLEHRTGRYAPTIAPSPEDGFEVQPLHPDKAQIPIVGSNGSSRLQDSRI
Counter-ions that a name gives are not always drawn.
measured quantity: Ki

Exercise: Reported Ki for O=S(=O)(CCCN1CCCCC1)NCCOc1ccc2c(c1)C(C1(c3ccc(Cl)cc3)CCC1)NCC2 (stereo not shown) : what is it?
Key: ≤ 100 µM

Exercise: Given the compound O=S(=O)(NCCOc1ccc2c(c1)C(C1(c3ccc(Cl)cc3)CCC1)NCC2)C1CCN(Cc2ccccc2)CC1 (stereo not shown) [Example 177, hydrochloride] , what is its reported Ki?
Key: ≤ 10 µM

Exercise: Entry CCCS(=O)(=O)NCCOc1ccc2c(c1)C(C1(c3ccccn3)CCC1)NCC2 (stereo not shown) [Example 98, dihydrochloride] has what Ki?
Key: ≤ 0.1 µM

Exercise: Given Cn1cnc(S(=O)(=O)NCc2ccc3c(c2)C(C(C)(C)c2ccc(Cl)cc2)NCC3)c1 (stereo not shown) [Example 102, hydrochloride] , state its recorded Ki.
Key: ≤ 0.1 µM

Exercise: Could you tell me which Ki is on file for N#Cc1ccc2c(c1)C(C1(c3ccccn3)CCC1)NCC2 (stereo not shown) [Example 129, hydrochloride] ?
Key: ≤ 10 µM

Exercise: What value of Ki has been reported for the following compound? CC(C)(C)OC(=O)NCCNS(=O)(=O)CCCOc1ccc2c(c1)C(C1(c3ccc(Cl)cc3)CCC1)NCC2 (stereo not shown)
Key: ≤ 10 µM

Exercise: So what does the record say about Ki for Nc1n[nH]c(S(=O)(=O)NCCOc2ccc3c(c2)C(C2(c4ccc(Cl)cc4)CCC2)NCC3)n1 (stereo not shown) [Example 203, dihydrochloride] ?
Key: ≤ 100 µM

* * *

target: human GlyT1c (Homo sapiens (Human), UniProt P48067); assay: [3H]-Glycine uptake into recombinant CHO cells expressing human GlyT1; type: cell-based; conditions: hGlyT1c_5_CHO cells, 200 nM [3H]-glycine
Sequence (P48067 whole entry): as above
Structures can show the parent of a compound that is named as a salt.
measured quantity: IC50

Exercise: Could you tell me which IC50 is on file for CCCS(=O)(=O)NCCOc1ccc2c(c1)C(C1(c3ccc(Cl)cc3)CCC1)N(C(=N)N)CC2 (stereo not shown) ?
Key: ≤ 10 µM

Exercise: Value lookup for IC50; key = O=S(=O)(Nc1ccccc1Oc1ccc2c(c1)C(C1(c3ccc(Cl)cc3)CCC1)NCC2)c1cccs1 (stereo not shown) [Example 116, hydrochloride]
Key: ≤ 100 µM

Exercise: What does the data say about its IC50? Entry: Cn1cc(S(=O)(=O)NCCOc2ccc3c(c2)C(C2(c4ccc(Cl)cc4)CCC2)NCC3)cn1 (stereo not shown) [Example 37, hydrochloride]
Key: ≤ 0.1 µM

Exercise: Fill in the blank: the reported IC50 of CCCNc1ccc(S(=O)(=O)NCCOc2ccc3c(c2)C(C2(c4ccc(Cl)cc4)CCC2)NCC3)cn1 (stereo not shown) [Example 59, hydrochloride] is ____.
Key: ≤ 10 µM

Exercise: Can you look up the measured IC50 of CCCNS(=O)(=O)CCCOc1ccc2c(c1)C(C1(c3ccc(Cl)cc3)CCC1)NCC2 (stereo not shown) [Example 82, hydrochloride] for me?
Key: ≤ 1 µM

Exercise: Look up IC50: CCS(=O)(=O)N1CCN(c2ccc3c(c2)C(C2(c4ccc(Cl)cc4)CCC2)NCC3)CC1 (stereo not shown)
Key: ≤ 100 µM

Exercise: Reported IC50 for O=S(=O)(NCCOc1ccc2c(c1)C(C1(c3ccc(Cl)cc3)CCC1)NCC2)c1cccc(Cl)c1 (stereo not shown) [Example 26, hydrochloride] : what is it?
Key: ≤ 1 µM

Exercise: Consider the molecule NCCS(=O)(=O)NCCOc1ccc2c(c1)C(C1(c3ccc(Cl)cc3)CCC1)NCC2 (single isomer, unassigned) [Example 152, dihydrochloride] and give its measured IC50.
Key: ≤ 10 µM

Exercise: Request the reported IC50 associated with CCCS(=O)(=O)NCCOc1ccc2c(c1)C(C(O)(c1ccc(Cl)cc1)c1ccc(Cl)cc1)NCC2 (stereo not shown) [Example 176, hydrochloride]
Key: ≤ 10 µM

Exercise: Quick one: IC50 of O=S(=O)(NCCOc1ccc2c(c1)C(C1(c3ccc(Cl)cc3)CCC1)NCC2)c1ccc(NCc2ccccc2)nc1 (stereo not shown) [Example 58, hydrochloride] ?
Key: ≤ 1 µM

Exercise: I would be grateful if you could share the reported IC50 for O=S(=O)(NCCOc1ccc2c(c1)C(C1(c3ccc(Cl)cc3)CCC1)NCC2)c1ccc2ccccc2c1 (stereo not shown) [Example 9, hydrochloride] .
Key: ≤ 10 µM

* * *

Reported values of IC50 for individual entries
biological target: human GlyT1c (Homo sapiens (Human)); experiment: [3H]-Glycine uptake into recombinant CHO cells expressing human GlyT1; type: cell-based; details: hGlyT1c_5_CHO cells, 200 nM [3H]-glycine
Where a name gives a salt, the structure may show the parent alone.

Previously resolved entries follow.
| molecule | val |
| --- | --- |
| COc1ccccc1NS(=O)(=O)CCCOc1ccc2c(c1)C(C1(c3ccc(Cl)cc3)CCC1)NCC2 (stereo not shown) [Example 121, hydrochloride] | ≤ 10 µM |
| O=S(=O)(NCc1ccc2c(c1)C(C1(c3ccc(Cl)cc3)CCC1)NCC2)c1cccnc1 (stereo not shown) [Example 108, dihydrochloride] | ≤ 10 µM |
| CS(=O)(=O)NCCOc1cc2c(cc1F)CCNC2C1(c2ccc(Cl)cc2)CCC1 (stereo not shown) [Example 12, hydrochloride] | ≤ 0.1 µM |

Exercise: Item under review: CCS(=O)(=O)NCCOc1ccc2c(c1)C(C1(c3ccc(Cl)cc3)CCC1)NCC2 (stereo not shown) [Example 7, hydrochloride] . Reported IC50?
Key: ≤ 0.1 µM

Exercise: Please give the measured IC50 for this molecule: CCCCS(=O)(=O)NCCOc1ccc2c(c1)C(C1(c3ccc(Cl)cc3)CCC1)N(C)CC2 (stereo not shown)
Key: ≤ 1 µM

Exercise: Look at this molecule and give its reported IC50. O=S(=O)(NCCOc1ccc2c(c1)C(C1(c3ccc(F)cc3)CCC1)NCC2)c1cccnc1 (stereo not shown) [Example 66, hydrochloride]
Key: ≤ 0.1 µM

Exercise: Endpoint output: IC50 of CCCS(=O)(=O)NCCOc1ccc2c(c1)CCNC2C1(c2ccc(Cl)cc2)CCC1 (stereo not shown) [Example 68, hydrochloride] . Value?
Key: ≤ 10 µM

* * *

// reported pIC50 for each item listed
target: human GlyT1c (Homo sapiens (Human), UniProt P48067); test: [3H]-Glycine uptake into recombinant CHO cells expressing human GlyT1; format: cell-based; conditions: hGlyT1c_5_CHO cells, 200 nM [3H]-glycine
pIC50: −log10 of the molar value. Structures can show the parent of a compound that is named as a salt.

Please review the following examples before continuing.
| molecule | system tested | measured quantity | val |
| --- | --- | --- | --- |
| CCCS(=O)(=O)NCCOc1ccc2c(c1)C(C1(c3ccc(Cl)cc3)CC(F)(F)C1)NCC2 (stereo not shown) [Example 44, hydrochloride] | human GlyT1c (Homo sapiens (Human), UniProt P48067) | pIC50 | ≥ 7.00 |
| CCCS(=O)(=O)NCCOc1ccc2c(c1)C(C1(c3ccc(Cl)cc3)CCC1)N(CC#N)CC2 (stereo not shown) [Example 80, hydrochloride] | human GlyT1c (Homo sapiens (Human), UniProt P48067) | pIC50 | ≥ 7.00 |

Exercise: Notebook: pull reported pIC50 for human GlyT1c (Homo sapiens (Human), UniProt P48067), entry O=S(=O)(NCCOc1ccc2c(c1)C(C1(c3ccc(Cl)cc3)CCC1)NCC2)c1c(Cl)nc2sccn12 (stereo not shown) [Example 167, hydrochloride]
Key: ≥ 5.00

Exercise: Find pIC50 (human GlyT1c (Homo sapiens (Human), UniProt P48067)) for the entry O=C(COc1ccc2c(c1)C(C1(c3ccc(Cl)cc3)CCC1)NCC2)N1CCNCC1 (stereo not shown)
Key: ≥ 5.00

* * *

Here, each record is paired with measured IC50 data.
molecular target: human GlyT1c (Homo sapiens (Human)); test: [3H]-Glycine uptake into recombinant CHO cells expressing human GlyT1; format: cell-based; settings: hGlyT1c_5_CHO cells, 200 nM [3H]-glycine
Structures can show the parent of a compound that is named as a salt.

Use these answered entries as a reference point.
| compound | IC50 |
| --- | --- |
| CC(C)NCCCS(=O)(=O)NCCOc1ccc2c(c1)C(C1(c3ccc(Cl)cc3)CCC1)NCC2 (stereo not drawn) | ≤ 100 µM |
| O=C(NCCOc1ccc2c(c1)C(C1(c3ccc(Cl)cc3)CCC1)NCC2)Nc1ccccc1 (stereo not drawn) [Example 34, hydrochloride] | ≤ 10 µM |

Exercise: Which IC50 is listed for O=S(=O)(CCCOc1ccc2c(c1)C(C1(c3ccc(Cl)cc3)CCC1)NCC2)N1CCNCC1 (stereo not drawn) [Example 133, dihydrochloride] ?
Key: ≤ 10 µM

Exercise: I'd like to know its IC50. The compound in question is COc1ccccc1S(=O)(=O)NCCOc1ccc2c(c1)C(C1(c3ccc(Cl)cc3)CCC1)NCC2 (stereo not drawn) [Example 18, hydrochloride]
Key: ≤ 1 µM

Exercise: Param item = Cn1cc(S(=O)(=O)NCCOc2ccc3c(c2)C(C2(c4ccc(Cl)cc4)CC(F)(F)C2)NCC3)cn1 (stereo not drawn) ; retrieve measured IC50.
Key: ≤ 0.1 µM
